target-desc: T1, RSV F subtype A, furin-cleaved ectodomain stabilized in the prefusion conformation (DS-Cav1) (Respiratory syncytial virus subtype A, UniProt P03420 26-524)
T1 construct: extracellular domain; Trimeric soluble antigen; also called Prefusion subtype A
assay-comment: BLI, IgG on AHQ sensor, 100 nM antigen
Listed binders paired with reported pKd
For clarity, pKd is expressed as the negative log10 of concentration in mol/L.

ADI-18958 (antibody, V domains shown, full-length IgG from yeast) VH: QVQLQESGAEVKMRGASVKVSCKASGYTFSHYGISWVRQAPGQGLEWMGFISAYNHNTKYAQTVQGRVTLSTDTSTSTAYMELRSLRPDDTAMYYCAREPPSDDAARLFDYWGQGTLVTVSS VL: ETTLTQSPRSLPVTLGQPASISCRSSQSLVYSEGNTYLSWFQQRPGQSPRRLIYKVSNRDSGVPDRFSGSGSGTDFTLKISRVEAEDVGVYYCMQGTQWPVTFGQGTKVEIK
9.54

Consider the record given below.
Entry ADI-18938 (antibody, V domains shown, full-length IgG from yeast; also called Antibody Number 291; Ab # 291) VH: EVQLLESGGGLVQPGGSLRLSCAASGFTFSNYWMHWVRQAPGKGLVWVSRISGDGSDTTYADSVEGRFTISRDNARSTLYLQLNSLTGDDTAVYYCARDLWTTSPYFDLWGQGTLVTVSS VL: EIVLTQSPGTLSASIGDRVTITCRASQSLNGWLAWYQQKPGKAPRLLIYKSSSLESGVPSRFSGSASGTEFTLTISSLQPDDFATYYCQQYNSWAFGQGTKVDVK ; pKd = 9.78

Where do these numbers come from? They come from patent US20200223906A1.
